# system.under.test: human M1 receptor (hCHRM1) (Homo sapiens)
# Construct: expressed in transfected cells
# experiment.notes: Measurement of M1 receptor positive allosteric modulator (M1PAM) activity, calcium fluorescence (FLIPRtetra) with acetylcholine at EC20
# Assay type: cell-based
# assay.conditions: 10 μM test compound; 100% = acetylcholine 1 μM, 0% = DMSO; acetylcholine at EC20
property: activity (%) at 10 μM

molecule="CCc1cc2c(cc1Cc1ccc(-n3cccn3)cc1)C(=O)N([C@H]1CCC[C@@H]1O)C2 (racemic)" property="activity (%) at 10 μM" unit_abbreviation=% measured=100
molecule="O=C1c2cc(Cc3ccc(-n4cccn4)cc3)c(C(F)(F)F)c(Cl)c2CN1[C@H]1CCCC[C@@H]1O (racemic)" property="activity (%) at 10 μM" unit_abbreviation=% measured=106
molecule=COc1ccc(Cc2cc3c(c(Cl)c2C)CN([C@H]2CCCC[C@@H]2O)C3=O)cc1 property="activity (%) at 10 μM" unit_abbreviation=% measured=92
molecule="Cc1c(Cc2ccc(-c3ccn(C)n3)cc2)cc2c(c1C)CN([C@H]1CCCC[C@@H]1O)C2=O (racemic)" property="activity (%) at 10 μM" unit_abbreviation=% measured=91
molecule="CCc1cc2c(cc1Cc1ccc(-c3cn(C)nn3)cc1)C(=O)N([C@H]1CCC[C@@H]1O)C2 (racemic) [Example 106]" property="activity (%) at 10 μM" unit_abbreviation=% measured=92
molecule="Cc1c(Cc2ccc(-c3cn(C)nn3)cc2F)cc2c(c1C)CN(CC1CCCO1)C2=O (stereo not drawn)" property="activity (%) at 10 μM" unit_abbreviation=% measured=94
molecule="O=C1c2cc(Cc3ccc(-n4cccn4)cc3)c(C3CC3)cc2CN1[C@H]1CCC[C@@H]1O (racemic)" property="activity (%) at 10 μM" unit_abbreviation=% measured=102
molecule="Cn1cc(-c2ccc(Cc3cc4c(cc3Cl)CN([C@H]3CCCC[C@@H]3O)C4=O)cc2)cn1 (racemic)" property="activity (%) at 10 μM" unit_abbreviation=% measured=97
molecule="O=C1c2cc(Cc3ccc(-n4cccn4)cc3)c(C3CC3)cc2CN1CC1CCCO1 (stereo not drawn)" property="activity (%) at 10 μM" unit_abbreviation=% measured=103
molecule=COc1ccc(Cc2cc3c(c(C)c2C)CN([C@H]2COCC[C@@H]2O)C3=O)cc1C property="activity (%) at 10 μM" unit_abbreviation=% measured=112
molecule=COc1ccc(Cc2cc3c(c(F)c2C)CN([C@H]2CCCC[C@@H]2O)C3=O)cc1 property="activity (%) at 10 μM" unit_abbreviation=% measured=100
molecule="Cc1c(Cc2ccc(-n3cccn3)cc2)cc2c(c1C)CN([C@H]1CCC[C@@H]1O)C2=O (racemic)" property="activity (%) at 10 μM" unit_abbreviation=% measured=108
molecule="Cc1cc2c(cc1Cc1ccc(-n3cccn3)cc1)C(=O)N([C@H]1CCC[C@@H]1O)C2 (racemic) [Example 33]" property="activity (%) at 10 μM" unit_abbreviation=% measured=95
molecule="Cc1cc(-c2ccc(Cc3cc4c(cc3C)CN([C@H]3CCC[C@@H]3O)C4=O)cc2)ccn1 (racemic)" property="activity (%) at 10 μM" unit_abbreviation=% measured=101
molecule=Cc1c(Cc2ccc(-c3ccn(C)n3)cc2)cc2c(c1C)CN(C[C@@H]1CCCO1)C2=O property="activity (%) at 10 μM" unit_abbreviation=% measured=100

* * *

# system.under.test: human M1 receptor (hCHRM1) (Homo sapiens, UniProt P11229)
# Construct: expressed in transfected cells
# Sequence (P11229 1-460): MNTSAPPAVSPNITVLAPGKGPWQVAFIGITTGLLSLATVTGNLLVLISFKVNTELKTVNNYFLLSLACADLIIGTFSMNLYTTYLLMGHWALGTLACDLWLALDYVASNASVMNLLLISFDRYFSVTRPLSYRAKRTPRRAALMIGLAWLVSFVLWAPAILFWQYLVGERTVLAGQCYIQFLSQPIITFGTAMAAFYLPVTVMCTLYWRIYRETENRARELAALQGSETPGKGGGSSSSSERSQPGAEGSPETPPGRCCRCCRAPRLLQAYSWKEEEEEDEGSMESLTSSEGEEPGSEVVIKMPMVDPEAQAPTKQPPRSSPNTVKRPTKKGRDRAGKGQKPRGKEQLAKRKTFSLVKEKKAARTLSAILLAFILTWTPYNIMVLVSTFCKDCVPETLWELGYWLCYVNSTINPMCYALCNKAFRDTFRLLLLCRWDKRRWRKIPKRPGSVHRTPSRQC
# experiment.notes: Measurement of M1 receptor positive allosteric modulator (M1PAM) activity, calcium fluorescence (FLIPRtetra) with acetylcholine at EC20
# Type: cell-based
# assay.conditions: 10 μM test compound; 100% = acetylcholine 1 μM, 0% = DMSO; acetylcholine at EC20
property: activity (%) at 10 μM

molecule="Cc1cc2c(cc1Cc1ccc(-n3cccn3)cc1)C(=O)N([C@H]1CCCC[C@@H]1O)C2 (racemic)" property="activity (%) at 10 μM" measured=99
molecule="Cc1c(Cc2ccc(-n3cccn3)cc2)cc2c(c1F)CN([C@H]1CCCC[C@@H]1O)C2=O (racemic)" property="activity (%) at 10 μM" measured=95
molecule="CCc1cc2c(cc1Cc1ccc(-c3cn(C)nn3)cc1)C(=O)N(CC1CCCO1)C2 (stereo not shown)" property="activity (%) at 10 μM" measured=92
molecule="Cc1cc2c(cc1Cc1ccc(-n3cccn3)cc1)C(=O)N(CC1CCCO1)C2 (stereo not shown)" property="activity (%) at 10 μM" measured=107

* * *

# system.under.test: human M1 receptor (hCHRM1) (Homo sapiens, UniProt P11229)
# experiment.notes: Measurement of M1 receptor positive allosteric modulator (M1PAM) activity, calcium fluorescence (FLIPRtetra) with acetylcholine at EC20
# assay.conditions: inflection point of concentration-dependent curve; CHO-K1 cells expressing hCHRM1; acetylcholine at EC20 (final 0.6-0.8 nM); read-out: IP value
property: EC50 (nM)

Past entries and their recorded results:
molecule="Cc1c(Cc2ccc(-n3cccn3)cc2)cc2c(c1C)CN(CC1CCCO1)C2=O (stereo not shown)" measured=14
molecule=Cc1c(Cc2ccc(-n3cccn3)cc2)cc2c(c1C)CN(c1ncc(Cl)cc1F)C2=O measured=66

I = Cc1nn(C)cc1-c1ccc(Cc2cc3c(c(C)c2C)CN([C@H]2CCC[C@@H]2O)C3=O)c(F)c1 (racemic)
II = Cc1cc(-c2ccc(Cc3cc4c(cc3C)CN([C@H]3CCCC[C@@H]3O)C4=O)cn2)ccn1 (racemic)
III = Cc1c(Cc2ccc(-n3cccn3)cc2)cc2c(c1C)CN([C@H]1CCC[C@@H]1O)C2=O (racemic)
IV = Cc1c(Cc2ccc(-c3ccn(C)n3)cc2)cc2c(c1F)CN([C@H]1COCC[C@@H]1O)C2=O
V = COc1c(Cc2ccc(-n3cccn3)cc2)cc2c(c1Cl)CN([C@H]1CCCC[C@@H]1O)C2=O (racemic)
Arrange the 5 molecules by rising EC50, starting with the smallest. Answer with the labels in sequence, matching the requested order.
IV, II, V, III, I

* * *

# system.under.test: human M1 receptor (hCHRM1) (Homo sapiens)
# Construct: expressed in transfected cells
# experiment.notes: Measurement of M1 receptor positive allosteric modulator (M1PAM) activity, calcium fluorescence (FLIPRtetra) with acetylcholine at EC20
# Assay type: cell-based
# assay.conditions: 10 μM test compound; 100% = acetylcholine 1 μM, 0% = DMSO; acetylcholine at EC20
property: activity (%) at 10 μM

compound="Cc1c(Cc2ccc(-n3cccn3)cc2F)cc2c(c1C)CN(CC(C)(C)O)C2=O [Example 121]" system_under_test="human M1 receptor (hCHRM1) (Homo sapiens)" measured=89
compound="Cc1cc2c(cc1Cc1ccc(-c3cn(C)nn3)cc1)C(=O)N([C@H]1CCC[C@@H]1O)C2 (racemic) [Example 48]" system_under_test="human M1 receptor (hCHRM1) (Homo sapiens)" measured=102
compound="Cc1c(Cc2ccc(C#N)c(F)c2)cc2c(c1C)CN([C@H]1COCC[C@@H]1O)C2=O [Example 26]" system_under_test="human M1 receptor (hCHRM1) (Homo sapiens)" measured=99
compound="Cc1cc2c(cc1Cc1ccc(-n3cccn3)cc1)C(=O)N(CC(C)(C)O)C2 [Example 104]" system_under_test="human M1 receptor (hCHRM1) (Homo sapiens)" measured=101
compound="COc1cc(Cc2cc3c(c(C)c2C)CN([C@H]2COCC[C@@H]2O)C3=O)ccc1F [Example 23]" system_under_test="human M1 receptor (hCHRM1) (Homo sapiens)" measured=100
compound="Cc1c(Cc2ccc(C#N)cc2F)cc2c(c1C)CN([C@H]1COCC[C@@H]1O)C2=O (racemic) [Example 112]" system_under_test="human M1 receptor (hCHRM1) (Homo sapiens)" measured=93
compound="Cc1cc2c(cc1Cc1ccc(-c3cnn(C)c3)cc1)C(=O)N([C@H]1CCC[C@@H]1O)C2 (racemic) [Example 67]" system_under_test="human M1 receptor (hCHRM1) (Homo sapiens)" measured=93
compound="CNC(=O)c1ccc(Cc2cc3c(c(C)c2C)CN([C@H]2COCC[C@@H]2O)C3=O)cc1F [Example 19]" system_under_test="human M1 receptor (hCHRM1) (Homo sapiens)" measured=101
compound="COc1ccc(Cc2cc3c(c(F)c2OC)CN([C@H]2CCCC[C@@H]2O)C3=O)cc1 [Example 161]" system_under_test="human M1 receptor (hCHRM1) (Homo sapiens)" measured=94
compound="Cc1cc2c(cc1Cc1ccc(-n3cccn3)cc1)C(=O)N([C@H]1COCC[C@@H]1O)C2 [Example 21]" system_under_test="human M1 receptor (hCHRM1) (Homo sapiens)" measured=106
compound="COc1c(Cc2ccc(-n3cccn3)cc2)cc2c(c1Cl)CN([C@H]1CCCC[C@@H]1O)C2=O (racemic) [Example 12]" system_under_test="human M1 receptor (hCHRM1) (Homo sapiens)" measured=91
compound="COc1ccc(Cc2cc3c(c(C)c2C)CN([C@H]2COCC[C@@H]2O)C3=O)c(F)c1 [Example 163]" system_under_test="human M1 receptor (hCHRM1) (Homo sapiens)" measured=108
compound="Cc1cc2c(cc1Cc1ccc(-n3cccn3)cc1)C(=O)N(C1CCOCC1)C2 [Example 8]" system_under_test="human M1 receptor (hCHRM1) (Homo sapiens)" measured=90
compound="Cc1c(Cc2ccc(-c3cnn(C)c3)nc2)cc2c(c1C)CN([C@H]1CCCC[C@@H]1O)C2=O (racemic) [Example 28]" system_under_test="human M1 receptor (hCHRM1) (Homo sapiens)" measured=106
compound="CCOc1ccc(Cc2cc3c(c(C)c2C)CN([C@H]2COCC[C@@H]2O)C3=O)cc1 [Example 142]" system_under_test="human M1 receptor (hCHRM1) (Homo sapiens)" measured=106
compound="Cc1c(Cc2ccc(C#N)cc2)cc2c(c1C)CN([C@H]1CCCC[C@@H]1O)C2=O [Example 155]" system_under_test="human M1 receptor (hCHRM1) (Homo sapiens)" measured=100

Source listed as patent US9315458B2.
